target: (h)DAT (Homo sapiens, UniProt Q01959); construct: expressed in transfected cells; test: block of [3H]dopamine reuptake in HEK-(h)DAT cells; format: cell-based; settings: relative to bupropion
Sequence (Q01959 whole entry): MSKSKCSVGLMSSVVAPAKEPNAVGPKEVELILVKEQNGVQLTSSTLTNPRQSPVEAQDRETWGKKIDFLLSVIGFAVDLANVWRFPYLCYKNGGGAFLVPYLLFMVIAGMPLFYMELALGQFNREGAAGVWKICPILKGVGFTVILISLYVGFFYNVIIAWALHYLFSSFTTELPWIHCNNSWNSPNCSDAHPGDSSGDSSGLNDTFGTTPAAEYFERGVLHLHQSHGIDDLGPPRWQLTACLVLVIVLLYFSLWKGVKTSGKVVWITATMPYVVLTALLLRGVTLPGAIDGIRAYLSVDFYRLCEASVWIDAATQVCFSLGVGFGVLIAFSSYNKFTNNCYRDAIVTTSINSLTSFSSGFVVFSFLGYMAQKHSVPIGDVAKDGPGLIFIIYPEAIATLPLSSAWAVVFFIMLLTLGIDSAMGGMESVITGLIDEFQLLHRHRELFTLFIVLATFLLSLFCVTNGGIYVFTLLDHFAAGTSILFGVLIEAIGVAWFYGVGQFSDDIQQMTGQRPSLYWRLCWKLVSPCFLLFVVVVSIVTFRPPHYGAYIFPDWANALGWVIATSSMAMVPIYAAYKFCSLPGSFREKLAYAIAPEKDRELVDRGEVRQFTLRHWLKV
Decide by times more potent than bupropion as DA uptake inhibitor: equal to or exceeding 4 times means Fulfilled, less means Not fulfilled.

CC(NC1CC1)C(=O)c1cccc(Cl)c1 (stereo not drawn); Not fulfilled
CC(NC1CCC1)C(=O)c1cccc(Cl)c1 (stereo not drawn); Not fulfilled
Cc1ccc(C(=O)C(C)NC(C)(C)C)cc1Cl (stereo not drawn); Not fulfilled
CC(NC(C)(C)C)C(=O)c1ccc(Cl)c(Cl)c1 (stereo not drawn); Not fulfilled
CCCC(NC(C)(C)C)C(=O)c1cccc(Cl)c1 (stereo not drawn); Fulfilled
CCCCC(NC(C)(C)C)C(=O)c1cccc(Cl)c1 (stereo not drawn); Fulfilled

----------
target: (h)SERT (Homo sapiens, UniProt P31645); construct: expressed in transfected cells; host or cells: HEK293; experiment: block of [3H]serotonin reuptake in HEK-(h)SERT cells; format: cell-based; conditions: bound given in μM; read-out: Uptake, IC50 [3H]5-HT
Sequence (P31645 whole entry): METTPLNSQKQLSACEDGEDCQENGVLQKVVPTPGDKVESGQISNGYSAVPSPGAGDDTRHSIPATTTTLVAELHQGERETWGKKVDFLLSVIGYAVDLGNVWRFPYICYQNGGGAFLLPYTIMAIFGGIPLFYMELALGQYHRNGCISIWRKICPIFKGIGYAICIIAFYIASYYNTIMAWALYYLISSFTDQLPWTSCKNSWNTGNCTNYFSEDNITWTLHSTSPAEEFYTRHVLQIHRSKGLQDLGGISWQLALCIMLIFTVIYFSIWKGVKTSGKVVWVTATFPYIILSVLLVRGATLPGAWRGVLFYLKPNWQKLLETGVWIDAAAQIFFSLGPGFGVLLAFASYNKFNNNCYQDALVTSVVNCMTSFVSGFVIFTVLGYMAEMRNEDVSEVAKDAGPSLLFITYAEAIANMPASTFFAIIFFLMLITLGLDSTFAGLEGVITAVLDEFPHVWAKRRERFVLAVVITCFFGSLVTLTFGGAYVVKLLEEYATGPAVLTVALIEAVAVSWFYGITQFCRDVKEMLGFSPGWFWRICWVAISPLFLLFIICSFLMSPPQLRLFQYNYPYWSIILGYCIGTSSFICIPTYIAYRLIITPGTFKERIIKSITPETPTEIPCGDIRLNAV
QUANTITY: IC50

CC(C)(C)NC(CCC1CCCCC1)C(=O)c1cccc(Cl)c1 (centres unmarked); > 10 µM
CC(C)CC(NC(C)(C)C)C(=O)c1cccc(Cl)c1 (centres unmarked); > 10 µM

----------
system: mice; assay: locomotor activity, 8-h time course protocol; format: in vivo; conditions: time period of maximum effect
QUANTITY: Locomotor Activity 8-Hour Time, min Period, max

CC(NC(C)(C)C)C(=O)c1ccc(Br)cc1 (stereo not drawn) [Compound 2g]; 140 to 170 min
CCCCCC(NC(C)(C)C)C(=O)c1cccc(Cl)c1 (stereo not drawn) [Compound 2r]; 60 to 90 min
CCCCC(NC(C)(C)C)C(=O)c1cccc(Cl)c1 (stereo not drawn) [Compound 2q]; 0 to 30 min
CCC(NC(C)(C)C)C(=O)c1ccc(Cl)c(Cl)c1 (stereo not drawn) [Compound 2aa]; 0 to 30 min
CC(C)CC(NC(C)(C)C)C(=O)c1cccc(Cl)c1 (stereo not drawn) [Compound 2t]; 260 to 290 min
CC(NC(C)(C)C)C(=O)c1ccc(Cl)cc1 (stereo not drawn) [Compound 2f]; 180 to 210 min
CCCC(NC(C)(C)C)C(=O)c1cccc(Cl)c1 (stereo not drawn) [Compound 2p]; 90 to 120 min
CC(NC1CC1)C(=O)c1cccc(Cl)c1 (stereo not drawn) [Compound 2x]; 0 to 30 min
Cc1ccc(C(=O)C(C)NC(C)(C)C)cc1 (stereo not drawn) [Compound 2h]; 30 to 60 min
CC(C)(C)NC(CCC1CCCCC1)C(=O)c1cccc(Cl)c1 (stereo not drawn) [Compound 2u]; 60 to 90 min
CC(NC1CCCC1)C(=O)c1cccc(Cl)c1 (stereo not drawn) [Compound 2z]; 0 to 30 min
COC(=O)[C@H]1[C@@H](OC(=O)c2ccccc2)C[C@@H]2CC[C@H]1N2C [cocaine, reference compound]; 0 to 30 min
Cc1ccc(C(=O)C(C)NC(C)(C)C)cc1Cl (stereo not drawn) [Compound 2k]; 10 to 40 min
CC(NC(C)(C)C)C(=O)c1ccccc1 (stereo not drawn) [Compound 2b, 2-(N-tert-Butylamino)propiophenone]; 0 to 30 min
CC(C(=O)c1cccc(Cl)c1)N(C)C(C)(C)C (stereo not drawn) [Compound 2cc]; 80 to 110 min

----------
// (h)NET (Homo sapiens) Ki records
QUANTITY: Ki

CC(NC(C)(C)C)C(=O)c1ccccc1 (centres unmarked); 5.7 µM
CCC(NC(C)(C)C)C(=O)c1ccc(Cl)c(Cl)c1 (centres unmarked); 2.24 µM
CCCCC(NC(C)(C)C)C(=O)c1cccc(Cl)c1 (centres unmarked); 3.19 µM
CC(NC1CC1)C(=O)c1cccc(Cl)c1 (centres unmarked); 4 µM
CC(NC(C)(C)C)C(=O)c1ccc(Cl)c(Cl)c1 (centres unmarked); 5.4 µM
CC(C)(C)NC(CCC1CCCCC1)C(=O)c1cccc(Cl)c1 (centres unmarked); 3.8 µM
CCN(CC)C(C)C(=O)c1cccc(Cl)c1 (centres unmarked); 4.48 µM
CC(C)CC(NC(C)(C)C)C(=O)c1cccc(Cl)c1 (centres unmarked); 2.3 µM

----------
target: (h)SERT (Homo sapiens); construct: expressed in transfected cells; host or cells: HEK293; details: read-out: Binding, Ki SERT
pKi: −log10 of the molar value.
QUANTITY: pKi

Cc1cc(C(=O)C(C)NC(C)(C)C)ccc1Br (stereo not drawn) [Compound 2l]; 5.92
CC(C(=O)c1cccc(Cl)c1)N1CCCCC1 (stereo not drawn) [Compound 2ff, 2-Piperidino-3′-chloropropiophenone]; 5.26
CC(NC(C)(C)C)C(=O)c1ccc(Cl)c(Cl)c1 (stereo not drawn) [Compound 2j]; 5.83
CC(NC(C)(C)C)C(=O)c1ccc(Br)cc1 (stereo not drawn) [Compound 2g]; 5.38
CC(NC1CC1)C(=O)c1cccc(Cl)c1 (stereo not drawn) [Compound 2x]; 5.47
CCCC(NC(C)(C)C)C(=O)c1ccc(Cl)c(Cl)c1 (stereo not drawn) [Compound 2bb]; 6.07

----------
target: (h)DAT (Homo sapiens, UniProt Q01959); construct: expressed in transfected cells; assay: block of [3H]dopamine reuptake in HEK-(h)DAT cells; type: cell-based; conditions: mean ± standard error of three independent experiments; read-out: Uptake, IC50 [3H]DA
pIC50: −log10 of the molar value.
QUANTITY: pIC50

CC(NC(C)(C)C)C(=O)c1cc(F)cc(F)c1 (stereo not drawn) [Compound 2m]; 5.25
CC(NC(C)(C)C)C(=O)c1ccccc1 (stereo not drawn) [Compound 2b, 2-(N-tert-Butylamino)propiophenone]; 5.64
CC(C(=O)c1cccc(Cl)c1)N(C)C(C)(C)C (stereo not drawn) [Compound 2cc]; 5.69
CC(NC(C)(C)C)C(=O)c1ccc(Br)cc1 (stereo not drawn) [Compound 2g]; 5.89
CC(NC(C)(C)C)C(=O)c1ccc(Cl)cc1 (stereo not drawn) [Compound 2f]; 5.63
CCCC(NC(C)(C)C)C(=O)c1ccc(Cl)c(Cl)c1 (stereo not drawn) [Compound 2bb]; 7.08

----------
test system: mice; assay: locomotor activity, 8-h time course protocol; format: in vivo; details: duration of locomotor activity
The entries below come with measured Locomotor Activity 8-Hour Time, min Period, length values attached.
QUANTITY: Locomotor Activity 8-Hour Time, min Period, length (min)

CC(NC(C)(C)C)C(=O)c1cccc(F)c1 (stereo not shown); 150
CC(C)CC(NC(C)(C)C)C(=O)c1cccc(Cl)c1 (stereo not shown); 320
Cc1cc(C(=O)C(C)NC(C)(C)C)ccc1Br (stereo not shown); 240
Cc1ccc(C(=O)C(C)NC(C)(C)C)cc1Cl (stereo not shown); 60
CC(NC(C)(C)C)C(=O)c1cccc(Br)c1 (stereo not shown); 120
CC(C(=O)c1cccc(Cl)c1)N1CCCCC1 (stereo not shown); 470

----------
test system: mice; assay: locomotor activity, 1-h observation protocol; assay type: in vivo; conditions: dose to produce 50% of the compound's maximal effect; 1-h
QUANTITY: Locomotor Activity 1-Hour ED50

Cc1cc(C(=O)C(C)NC(C)(C)C)ccc1Br (centres unmarked) [Compound 2l]; NE^f
CC(NC(C)(C)C)C(=O)c1ccc(Br)cc1 (centres unmarked) [Compound 2g]; NE^f
CCCNC(C)C(=O)c1cccc(Cl)c1 (centres unmarked) [Compound 2v, 2-(N-Propylamino)-3′-chloropropiophenone]; NE^f
CC(C)CC(NC(C)(C)C)C(=O)c1cccc(Cl)c1 (centres unmarked) [Compound 2t]; 47.7 mg/kg
CC(NC(C)(C)C)C(=O)c1cc(Cl)cc(Cl)c1 (centres unmarked) [Compound 2n]; NE^f

----------
target: (h)DAT (Homo sapiens); construct: expressed in transfected cells; test: competition binding with [125I]RTI-55 at (h)DAT stably expressed in HEK293 cells; conditions: mean ± standard error of three independent experiments
Binning of Ki into classes: bottom range = under 0.5 µM, center range = from 0.5 µM up to 2 µM, top range = 2 µM and over

CCCC(NC(C)(C)C)C(=O)c1ccc(Cl)c(Cl)c1 (stereo not drawn) [Compound 2bb]; bottom range
CC(NC(C)(C)C)C(=O)c1ccc(Br)cc1 (stereo not drawn) [Compound 2g]; center range
CCCC(NC(C)(C)C)C(=O)c1cccc(Cl)c1 (stereo not drawn) [Compound 2p]; bottom range
CC(NC(C)(C)C)C(=O)c1ccccc1 (stereo not drawn) [Compound 2b, 2-(N-tert-Butylamino)propiophenone]; top range
CC(C(=O)c1cccc(Cl)c1)N(C)C (stereo not drawn) [Compound 2dd]; top range
CC(NC(C)(C)C)C(=O)c1ccc(Cl)cc1 (stereo not drawn) [Compound 2f]; top range
CCN(CC)C(C)C(=O)c1cccc(Cl)c1 (stereo not drawn) [Compound 2ee]; top range
CC(NC(C)(C)C)C(=O)c1ccc(Cl)c(Cl)c1 (stereo not drawn) [Compound 2j]; bottom range
CCCCC(NC(C)(C)C)C(=O)c1cccc(Cl)c1 (stereo not drawn) [Compound 2q]; bottom range
CCCCCC(NC(C)(C)C)C(=O)c1cccc(Cl)c1 (stereo not drawn) [Compound 2r]; center range
CC(NC(C)(C)C)C(=O)c1cccc(F)c1 (stereo not drawn) [Compound 2c]; top range
Cc1ccc(C(=O)C(C)NC(C)(C)C)cc1Cl (stereo not drawn) [Compound 2k]; center range
CC(NC(C)(C)C)C(=O)c1cccc(Br)c1 (stereo not drawn) [Compound 2d]; top range
CC(C(=O)c1cccc(Cl)c1)N(C)C(C)(C)C (stereo not drawn) [Compound 2cc]; top range
CC(C)(C)NC(CCC1CCCCC1)C(=O)c1cccc(Cl)c1 (stereo not drawn) [Compound 2u]; center range
CC(NC(C)(C)C)C(=O)c1cc(F)cc(F)c1 (stereo not drawn) [Compound 2m]; top range
CC(C(=O)c1cccc(Cl)c1)N1CCCCC1 (stereo not drawn) [Compound 2ff, 2-Piperidino-3′-chloropropiophenone]; center range
CCC(NC(C)(C)C)C(=O)c1ccc(Cl)c(Cl)c1 (stereo not drawn) [Compound 2aa]; bottom range
CC(NC1CCC1)C(=O)c1cccc(Cl)c1 (stereo not drawn) [Compound 2y]; bottom range
CC(NC1CC1)C(=O)c1cccc(Cl)c1 (stereo not drawn) [Compound 2x]; center range
CC(C)CC(NC(C)(C)C)C(=O)c1cccc(Cl)c1 (stereo not drawn) [Compound 2t]; bottom range
CC(NC1CCCC1)C(=O)c1cccc(Cl)c1 (stereo not drawn) [Compound 2z]; top range
CC(C)NC(C)C(=O)c1cccc(Cl)c1 (stereo not drawn) [Compound 2w]; top range
